- measured_on: Calpain-1 catalytic subunit (Homo sapiens)
- assay_notes: Inhibition of calpain (unknown origin) at 1 uM using Suc-LY-AMC as fluorogenic substrate after 60 mins by spectrofluorometric analysis relative to calpeptin
measured_parameter: inhibition (%)

1. COCCN/C(=C1/N=CN(CCOC)C1=O)c1cc2ccccc2[nH]1: 73.7
2. COCCN/C(=C1/N=CN(CCOC)C1=O)c1[nH]c2ccccc2c1I: 76.8
3. COCCCN/C(=C1/N=CN(CCOC)C1=O)c1cc2ccccc2[nH]1: 71.8
4. CCCCN/C(=C1/N=CN(CCCC)C1=O)c1cc2ccccc2[nH]1: 14
5. COCCN/C(=C1/N=C(c2ccccc2)N(CCOC)C1=O)c1cc2ccccc2[nH]1: 21.5
6. COCCN/C(=C1/N=CN(CCOC)C1=O)c1[nH]c2ccccc2c1Br: 62.9
7. COCCN/C(=C1/N=C(C)N(CCOC)C1=O)c1cc2ccccc2[nH]1: 93
8. O=C1/C(=C(\NCc2ccccc2)c2cc3cccnc3[nH]2)N=CN1Cc1ccccc1: 11.7
9. CCCCN/C(=C1/N=CN(CCOC)C1=O)c1cc2ccccc2[nH]1: 75.4
10. CC(C)N/C(=C1/N=CN(C(C)C)C1=O)c1cc2ccccc2[nH]1: 57.8
11. O=C1/C(=C(\NC2CCCCC2)c2cc3ccccc3[nH]2)N=CN1C1CCCCC1: 9
12. O=C1/C(=C(\NCc2ccccc2)c2cc3ccccc3[nH]2)N=CN1Cc1ccccc1: 28.2
13. COCCN/C(=C1/N=CN(CCOC)C1=O)c1cc2cccnc2[nH]1: 79.4
14. COCCN/C(=C1/N=CN(CCOC)C1=O)c1[nH]c2ccccc2c1Cl: 71.9
15. CC(C)N/C(=C1/N=CN(C(C)C)C1=O)c1cc2cccnc2[nH]1: 37.2
16. O=C1/C(=C(\NC2CCCCC2)c2cc3cccnc3[nH]2)N=CN1C1CCCCC1: 4.5
17. COCCN1C=N/C(=C(/NCCN(C)C)c2cc3ccccc3[nH]2)C1=O: 64.6

Taken from ChEMBL document CHEMBL4261583.
